Source: patent US8962322B2

System: human Oct4 promoter
ASSAY_REMARKS: Oct4-luc luciferase reporter assay (stably transfected CV1 cells)
Assay type: cell-based
PROTOCOL_CONDITIONS: compound at 1 μM, Oct4-luc cells, triplicates; read-out: Oct4-luc fold Induction
Measured fold induction at 1 µM by item
VALUE_KIND: fold induction at 1 µM

* NCc1ccc(C(=O)Nc2ccc3[nH]ncc3c2)cc1 | 1.01
* COc1cc(OC)c(C(=O)Nc2ccc3[nH]ncc3c2)cc1OC | 1
* O=C(Nc1cc2cc[nH]c2cn1)c1ccccc1 [OAC1, N-(1H-6-azaindol-5-yl)benzamide] | 5
* O=C(Nc1ccc2[nH]ncc2c1)c1c(F)c(F)c(F)c(F)c1F | 1

###

System: human Nanog promoter
ASSAY_REMARKS: Nanog-luc luciferase reporter assay (stably transfected CV1 cells)
Assay type: cell-based
PROTOCOL_CONDITIONS: compound at 1 μM, Nanog-luc cells, triplicates
We label by threshold. Values of Nanog-luc fold Induction strictly beneath 2 fold are 1. Values of 2 fold and up are -1.

- COc1ccc(C(=O)Nc2ccc3[nH]ncc3c2)c(OC)c1 [Compound C28]: 1
- CC(C)c1ccc(C(=O)Nc2ccc3[nH]ncc3c2)cc1 [OAC11]: -1
- CCOc1ccc(C(=O)Nc2ccc3[nH]ncc3c2)cc1OCC [Compound C30]: 1
- CCc1ccc(C(=O)Nc2ccc3[nH]ncc3c2)cc1 [OAC10]: -1
- O=C(Nc1ccc2[nH]ncc2c1)c1ccccc1Cl [Compound C23]: 1
- O=C(Nc1ccc2[nH]ncc2c1)c1cccc(Cl)c1 [Compound C19]: 1
- O=C(Nc1ccc2[nH]nnc2c1)c1cccc(Cl)c1 [Compound C31]: 1
- COc1cccc(C(=O)Nc2ccc3[nH]ncc3c2)c1OC [Compound C27]: 1
- COc1ccccc1C(=O)Nc1ccc2[nH]ncc2c1 [Compound C25]: 1
- O=C(Nc1ccc2[nH]ncc2c1)c1ccccc1 [OAC8]: 1

###

Tested on: human Oct4 promoter
ASSAY_REMARKS: Oct4-luc luciferase reporter assay (stably transfected CV1 cells)
Type: cell-based
PROTOCOL_CONDITIONS: compound at 1 μM, Oct4-luc cells, triplicates
# Oct4-luc fold Induction binned as low: < 2 fold; mid: ≥ 2 fold and < 3 fold; high: ≥ 3 fold

* Cc1ccc(C(=O)Nc2ccc3[nH]cc(C#N)c3c2)cc1 [Compound C17] | low
* O=C(Nc1ccc2[nH]ncc2c1)c1ccc(F)cc1 [OAC7] | mid
* O=C(Nc1ccc2[nH]ncc2c1)c1cccc(C(F)(F)F)c1 [Compound C21] | low
* COc1ccc(C(=O)Nc2ccc3[nH]ncc3c2)cc1OC [Compound C29] | low
* O=C(Nc1ccc2[nH]ncc2c1)c1ccccc1Br [Compound C24] | low
* O=C(Nc1ccc2[nH]ncc2c1)c1ccc(Br)cc1 [OAC18] | high
* CCOc1cccc(C(=O)Nc2ccc3[nH]ncc3c2)c1 [OAC14] | mid
* O=C(Nc1ccc2[nH]ncc2c1)c1cccc(Br)c1 [Compound C20] | low
* CCOc1ccccc1C(=O)Nc1ccc2[nH]ncc2c1 [Compound C26] | low
* Cc1ccc(C(=O)Nc2ccc3[nH]ncc3c2)cc1C [OAC13] | mid
* COc1ccc(C(=O)Nc2ccc3[nH]ncc3c2)c(OC)c1 [Compound C28] | low
* COc1ccc(C(=O)Nc2ccc3[nH]ncc3c2)cc1 [OAC6] | high
* COc1cccc(C(=O)Nc2ccc3[nH]ncc3c2)c1 [OAC15] | low
* CN1CCC(c2c[nH]c3ccc(NC(=O)c4ccc(F)cc4)cc23)CC1 [Compound C16] | low
* CN(C)c1ccc(C(=O)Nc2ccc3[nH]ncc3c2)cc1 [OAC17] | high
* CCOc1ccc(C(=O)Nc2ccc3[nH]ncc3c2)cc1 [OAC9] | high
* CC(C)c1ccc(C(=O)Nc2ccc3[nH]ncc3c2)cc1 [OAC11] | high
* COc1ccccc1C(=O)Nc1ccc2[nH]ncc2c1 [Compound C25] | low
* COc1ccc(C(=O)Nc2ccc3[nH]ccc3c2)cc1 [OAC4] | high
* O=C(Nc1ccc2[nH]ncc2c1)c1ccccc1F [Compound C22] | low

###

Tested on: human Nanog promoter
ASSAY_REMARKS: Nanog-luc luciferase reporter assay (stably transfected CV1 cells)
Format: cell-based
PROTOCOL_CONDITIONS: compound at 1 μM, Nanog-luc cells, triplicates
Measured Nanog-luc fold Induction by item
VALUE_KIND: Nanog-luc fold Induction (fold)

- O=C(Nc1ccc2[nH]ncc2c1)c1cccc(Br)c1: 1.1
- O=C(Nc1ccc2[nH]ncc2c1)c1ccc(F)cc1: 2.0
- O=C(Nc1ccc2[nH]ncc2c1)c1ccccc1Br: 1.6
- O=C(Nc1ccc2[nH]ncc2c1)c1ccccc1F: 1.6
- Cc1ccc(C(=O)Nc2ccc3[nH]ncc3c2)cc1C: 2.9
- Cc1ccc(C(=O)Nc2ccc3[nH]cc(C#N)c3c2)cc1: 1.1
- O=C(Nc1ccc2[nH]ncc2c1)c1cccc(C(F)(F)F)c1: 1.2
- CCOc1cccc(C(=O)Nc2ccc3[nH]ncc3c2)c1: 2.6
- Cc1nc2cc(NC(=O)c3ccc([N+](=O)[O-])cc3)ccc2[nH]1: 1.2
- CCOc1ccc(C(=O)Nc2ccc3[nH]ncc3c2)cc1: 4.4
- CCOc1ccccc1C(=O)Nc1ccc2[nH]ncc2c1: 1.2
- O=C(Nc1ccc2[nH]ncc2c1)c1cccc(F)c1: 1.2
- O=C(Nc1ccc2[nH]ccc2c1)c1ccc2nonc2c1: 2.4
- O=C(Nc1ccc2[nH]ncc2c1)c1ccc(Br)cc1: 4.5
- COc1ccc(C(=O)Nc2ccc3[nH]ncc3c2)cc1OC: 1.1
- COc1ccc(C(=O)Nc2ccc3[nH]ncc3c2)cc1: 2.9
- CN(C)c1ccc(C(=O)Nc2ccc3[nH]ncc3c2)cc1: 4.56
- COc1ccc(C(=O)Nc2ccc3[nH]ccc3c2)cc1: 4.9
